Where do the numbers come from? From patent US8946426B2.

# Tested on: Aβtotal
# assay.method.text: Method 2: Aβtotal Alphalisa in supernatant of SKNBE2 cells carrying APP 695-wild type (Table 7c)
# Assay type: cell-based
# condition.summary: Method 2, Alphalisa, overnight incubation
Collected IC50 values appear next to each entry.

Example entries and their recorded answers appear below.
INSERT INTO results (molecule, observed_value) VALUES
  ('COc1cc(Nc2cccc3c2nc(-c2ccc(F)cc2)n3C)ccc1-c1cn(C)nn1 [Compound 74]', '4.47 µM'),
  ('COc1cc(Nc2cc(Cl)cn3cc(C4CCOCC4)nc23)ccc1-c1ocnc1C [Compound 159]', '> 10 µM'),
  ('Cc1ncc(-c2ccc(Nc3nccc4c3nc(CC3CC3)n4C)cc2F)o1 [Compound 66]', '> 10 µM'),
  ('Cc1ncc(-c2ccc(Nc3cccn4c(C)c(-c5ccccc5C(F)(F)F)nc34)cn2)o1 [Compound 167]', '> 10 µM'),
  ('Cc1ncc(-c2ccc(Nc3cccn4c(C)c(-c5ccccc5Cl)nc34)cc2)o1 [Compound 49]', '> 10 µM');

Challenge: Look up IC50: Cc1cc2c(nc(-c3cccc(Cl)c3)n2C)c(Nc2ccc(-c3ocnc3C)nc2)n1 [Compound 111]
Response given: > 10 µM

Challenge: Now give it for Cc1ncc(-c2ccc(Nc3cccc4c3nc(C(C)c3ccc(Cl)cc3)n4C)cn2)o1 (racemic) [Compound 87] too.
Response given: 9.12 µM

Challenge: Another: Cc1ncc(-c2ccc(Nc3cc(F)cc4c3nc(-c3ccccc3Cl)n4C)cn2)o1 [Compound 107]
Response given: > 10 µM
